# Assay: chemical genetic growth profiling, strain panel (AID 1159580);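 note: tested at 20 µM; growth read once vehicle control cultures reached saturation at 30 °C; 1 = growth at the plate median or of vehicle wells; lower values mean less growth of the strain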
# Reported conditions: S. cerevisiae deletion strains, growth OD, locus YGR040W, strain KSS1
Hit rate of the full screen: of about 5,500 compounds, about 2,000 (36%) were called active. Not shown: some 18% with an inconclusive outcome. Cut-off read from the data, not from the text of the source: active = normalized growth mostly below about 0.91 (no sharp cut-off); inconclusive = no clear call, values can overlap the other calls; inactive = mostly above about 0.92. The list shows a part of the results.
Labels: active, inactive

| Smiles structure | Label |
| --- | --- |
| COc1cc(Br)cc(C=Nc2ccc(Sc3ccccc3)nc2Sc2ccccc2)c1O | inactive |
| CCCCNC(=S)N/N=C\c1cc(Cl)cc(Cl)c1O | active |
| COCCCNC(=S)N/N=C\c1cc(Br)ccc1O | inactive |

----------
# Assay: chemical genetic growth profiling, strain panel (AID 1159580)
# Reported conditions: S. cerevisiae deletion strains, growth OD, locus YNL233W, strain BNI4, active compounds read low
Screen size: about 5,500 compounds; about 2,000 (36%) were called active. Not shown: some 18% with an inconclusive outcome. Some of the results follow.
Property: normalized growth

| Compound | Property | Numeric value |
| --- | --- | --- |
| COc1cc(OC)c2ccc(=O)oc2c1 | normalized growth | 1 |
| C[N+](C)(C)CC(O)CC(=O)O (configuration not stated) | normalized growth | 1 |
| CN(C)c1nc(N)c(C(=O)N=C(N)N)nc1Cl | normalized growth | 0.989 |
| C[C@@H]1CC[C@@]2(OC1)O[C@H]1CC3C4CC[C@H]5C[C@@H](O)CC[C@]5(C)C4CC[C@]3(C)[C@H]1[C@@H]2C (some centres not stated) | normalized growth | 0.99 |
| COc1ccc2c(c1C(C)C)CCC1C(C)(C)C(=O)CCC21C (configuration not stated) | normalized growth | 0.98 |
| COC(=O)c1c(C)cc(OC)cc1O | normalized growth | 0.992 |
| COc1ccc2c3c1OC1C(O)CC=C4C(C2)N(C)CCC431 (configuration not stated) | normalized growth | 1.02 |
| CC(=O)[C@@]1(O)CCC2C3C[C@H](C)C4=CC(=O)C=CC4(C)[C@@]3(F)[C@@H](O)C[C@@]21C (some centres not stated) | normalized growth | 1 |
| NC(N)=NC(=O)c1nc(Cl)c(N)nc1N | normalized growth | 1 |
| CC1=CC(=O)C2=C(C)CC[C@@H]3[C@H](OC(=O)[C@H]3C)[C@@H]12 | normalized growth | 1 |
| CCC(N)C(O)c1ccc(O)c(O)c1 (configuration not stated) | normalized growth | 0.992 |
| Cc1cc(OC(=O)c2c(C)cc(OC(=O)c3c(C)cc(O)cc3O)cc2O)cc(O)c1C(=O)O | normalized growth | 0.995 |

----------
# Assay: chemical genetic growth profiling, strain panel (AID 1159580)
# Reported conditions: S. cerevisiae deletion strains, growth OD, locus YAL030W, strain snc1, active compounds read low
Out of some 5,500 compounds screened, about 2,000 (36%) were called active. Another 18% or so got no clear call; they are omitted. The list shows a part of the results.
The reader will find reported normalized growth values listed item by item below.

| Compound | normalized growth |
| --- | --- |
| COc1cc(OC)c2c(=O)c(O)c(-c3ccc(OC)c(OC)c3)oc2c1 | 0.904 |
| CCCCCCCCCCCC1=C(O)C(=O)C=C(O)C1=O | 0.889 |
| CCCCOc1cc(C(=O)NCCN(CC)CC)c2ccccc2n1 | 0.972 |
| OC1CC2CCCC(C1)N2Cc1ccccc1 (centres undefined) | 1 |
| Cc1ccccc1OCC(O)CO (centres undefined) | 0.967 |
| C=CC1C2=CCOC(=O)C2=COC1OC1OC(CO)C(O)C(O)C1O (centres undefined) | 1.02 |
| NS(=O)(=O)c1cc(C2(O)NC(=O)c3ccccc32)ccc1Cl (centres undefined) | 0.993 |
| CCCCCc1c2c(cc(O)c1C(=O)O)OC(=O)c1c(cc(OC)cc1C(=O)CCCC)O2 | 0.993 |
| C[C@@H]1O[C@@H](OC[C@H]2OC(Oc3c(-c4ccc(OCCO)c(OCCO)c4)oc4cc(OCCO)cc(O)c4c3=O)[C@H](O)[C@@H](O)[C@@H]2O)[C@H](O)[C@H](O)[C@H]1O (some centres undefined) | 0.946 |

----------
The reader will find reported normalized growth values listed item by item below.
# Assay: chemical genetic growth profiling, strain panel (AID 1159580)
# Reported conditions: S. cerevisiae deletion strains, growth OD, locus YPL051W, strain arl3, active compounds read low
The whole screen tested about 5,500 compounds, of which about 2,000 (36%) were called active. About 18% were inconclusive and are not listed. The list shows a part of the results.

| Compound | normalized growth |
| --- | --- |
| C[C@]12CCC3c4ccc(O)cc4CCC3C1C[C@@H](O)[C@@H]2O (stereo partly specified) | 1.02 (inactive) |
| CCCCCCC(C)OC(=O)COc1ccc(Cl)cc1Cl (stereo unspecified) | 0.989 (inactive) |
| NC(=O)CN1CCCC1=O | 0.99 (inactive) |
| CC(=O)Oc1ccc2c(c1OC(C)=O)OCC1(O)Cc3c(cc(OC(C)=O)c(OC(C)=O)c3OC(C)=O)C21 (stereo unspecified) | 0.969 (inactive) |
| CC1(C)O[C@H]2CC(=O)OC[C@]23[C@H]2CC[C@@]4(C)[C@H](c5ccoc5)OC(=O)[C@H]5O[C@]54[C@]2(C)C(=O)C[C@@H]13 | 0.986 (inactive) |
| CNC(=O)Oc1cccc2c1OC(C)(C)O2 | 0.997 (inactive) |
| C[C@@H]1CC[C@@]2(OC1)OC1CC3C4CC=C5C[C@@H](O)CC[C@]5(C)C4CC[C@]3(C)C1[C@@H]2C (stereo partly specified) | 0.999 (inactive) |
| COc1cc(OC)c2ccc(=O)oc2c1 | 0.968 (inactive) |
| COc1ccccc1/C=C\C(=O)O | 0.992 (inactive) |
| CCCCOc1cc(C(=O)NCCN(CC)CC)c2ccccc2n1 | 0.989 (inactive) |
| CC1(C)C=CC(=O)[C@@]2(C)C1CC(=O)[C@]1(C)C2CC[C@@]2(C)[C@H](c3ccoc3)OC(=O)C3OC321 (stereo partly specified) | 0.987 (inactive) |

----------
# Assay: chemical genetic growth profiling, strain panel (AID 1159580);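 note: tested at 20 µM; growth read once vehicle control cultures reached saturation at 30 °C; 1 = growth at the plate median or of vehicle wells; lower values mean less growth of the strain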
# Reported conditions: S. cerevisiae deletion strains, growth OD, locus YAL021C, strain ccr4, active compounds read low
Hit rate of the full screen: of about 5,500 compounds, about 2,000 (36%) were called active. About 18% were inconclusive and are not listed. This is one part of the list.
The reader will find reported normalized growth values listed item by item below.

| Compound | normalized growth |
| --- | --- |
| COC(=O)[C@@]1(C)CCC[C@]2(C)c3ccc(O)c(C(C)C)c3CCC12 (stereo partly drawn) | 1.08 (inactive) |
| Oc1ccc2c(c1)OCC1(O)Cc3cc(O)c(O)cc3C21 (stereo not drawn) | 1.03 (inactive) |
| O=C(O[C@@H]1Cc2c(O)cc(O)cc2O[C@@H]1c1cc(O)c(=O)c2c(O)c(O)cc([C@H]3Oc4cc(O)cc(O)c4C[C@H]3OC(=O)c3cc(O)c(O)c(O)c3)c2c1)c1cc(O)c(O)c(O)c1 | 0.0843 (active) |

----------
# Assay: chemical genetic growth profiling, strain panel (AID 1159580);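 note: tested at 20 µM; growth read once vehicle control cultures reached saturation at 30 °C; 1 = growth at the plate median or of vehicle wells; lower values mean less growth of the strain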
# Reported conditions: S. cerevisiae deletion strains, growth OD, locus YDL101C, strain DUN1
In all, about 5,500 compounds went through this assay and about 2,000 (36%) were called active. Roughly 18% stayed inconclusive and do not appear here. Rule as the data show it: active = normalized growth mostly below about 0.91 (no sharp cut-off); inconclusive = no clear call, values can overlap the other calls; inactive = mostly above about 0.92. The list shows a part of the results.
Labels: active, inactive

| Molecule | Label |
| --- | --- |
| NS(=O)(=O)c1cc(C2(O)NC(=O)c3ccccc32)ccc1Cl (stereo unspecified) | inactive |
| Cc1[nH]ccc2c1[nH]c1cc(=O)ccc12 | inactive |
| Cc1ccc(C)n1-c1ccc(/C=C2/C(=O)Nc3ccccc32)cc1 | inactive |
| Cc1cc(C)c(CSCCNC(=O)Nc2ccc(F)cc2F)c(C)c1 | inactive |
| COc1ccccc1NC(=O)NCCSCc1ccccc1Cl | inactive |
| OC1(C(F)(F)F)CC(c2ccccc2)=NN1 (stereo unspecified) | inactive |
| Cn1[nH]c(=O)cc1C(=O)NN | inactive |
| COC(=O)c1c(C)cc(OC)cc1O | inactive |
| O=C(OC1Cc2c(O)cc(O)cc2OC1c1cc(=O)c(O)c2c(O)c(O)cc(C3Oc4cc(O)cc(O)c4CC3O)c2c1)c1cc(O)c(O)c(O)c1 (stereo unspecified) | active |
| O=C1CC(Nc2ccccc2)C=C1Nc1ccccc1 (stereo unspecified) | inactive |
| CNC(=O)Oc1cccc2c1OC(C)(C)O2 | inactive |

----------
# Assay: chemical genetic growth profiling, strain panel (AID 1159580);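 note: tested at 20 µM; growth read once vehicle control cultures reached saturation at 30 °C; 1 = growth at the plate median or of vehicle wells; lower values mean less growth of the strain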
# Reported conditions: S. cerevisiae deletion strains, growth OD, locus YKR091W, strain srl3, active compounds read low
Among all 5,500 compounds or so, about 2,000 (36%) were called active. Inconclusive results (about 18%) are left out. This is one part of the list.

| Molecule | normalized growth |
| --- | --- |
| CC[n+]1c(-c2ccccc2)c2cc(N)ccc2c2ccc(N)cc21 | 0.97 |
| C[C@@H]1CC[C@@]2(OC1)OC1CC3C4CC=C5C[C@@H](O)CC[C@]5(C)C4CC[C@]3(C)C1[C@@H]2C (some centres undefined) | 0.996 |
| O=c1cc(-c2ccc(O)cc2)oc2cc(O[C@@H]3O[C@H](CO)[C@@H](O)[C@H](O)[C@H]3O)cc(O)c12 | 1 |
| CC(C)c1c(O)c(-c2cc3c(c(C(C)C)c2O)CCC2C(C)(C)CCC[C@]32C)cc2c1CCC1C(C)(C)CCC[C@]21C (some centres undefined) | 0.971 |
